Experiment description: Toxicity in iv dosed Sprague-Dawley rat assessed as maximum tolerated dose measured upto 14 days
Type: organism-based
Condition info: in vivo, 336 h, time < 14 day
Result type: MTD

Smi: Cc1c(C)c(OCCCS(=O)(=O)[O-])c2c(c1OCCCS(=O)(=O)[O-])CN1C(=O)N3CN4C(=O)N5CN6C(=O)N7CN8C(=O)N9Cc%10c(c(OCCCS(=O)(=O)[O-])c(C)c(C)c%10OCCCS(=O)(=O)[O-])CN%10C(=O)N(CN%11C(=O)N(CN%12C(=O)N(CN%13C(=O)N(C2)[C@]1(C)[C@]%133C)[C@@H]4[C@@H]5%12)[C@@H]6[C@@H]7%11)[C@]8(C)[C@]%109C.[Na+].[Na+].[Na+].[Na+]
MTD: 500 mg/kg

Dear colleague, could you please provide MTD for the compounds listed below?
1. C[C@]12N3Cc4c(c(OCCCS(=O)(=O)[O-])c5c(c4OCCCS(=O)(=O)[O-])CCC5)CN1C(=O)N1CN4C(=O)N5CN6C(=O)N7CN8C(=O)N9Cc%10c(c(OCCCS(=O)(=O)[O-])c%11c(c%10OCCCS(=O)(=O)[O-])CCC%11)CN%10C(=O)N(CN%11C(=O)N(CN%12C(=O)N(CN(C3=O)[C@]12C)[C@@H]4[C@H]%125)[C@@H]6[C@H]%117)[C@]8(C)[C@@]9%10C.[Na+].[Na+].[Na+].[Na+]
2. CC[C@]12N3Cc4c(c(OCCCS(=O)(=O)[O-])c5ccccc5c4OCCCS(=O)(=O)[O-])CN1C(=O)N1CN4C(=O)N5CN6C(=O)N7CN8C(=O)N9Cc%10c(c(OCCCS(=O)(=O)[O-])c%11ccccc%11c%10OCCCS(=O)(=O)[O-])CN%10C(=O)N(CN%11C(=O)N(CN%12C(=O)N(CN(C3=O)[C@]12CC)[C@@H]4[C@H]%125)[C@@H]6[C@H]%117)[C@]8(CC)[C@@]9%10CC.[Na+].[Na+].[Na+].[Na+]

Response given:
1: 500 mg/kg; 2: 500 mg/kg

---

What solubility was measured for each of the following?
Experiment description: Water solubility of the compound measured at 25 degreeC
Type: physicochemical
One number for each entry, in mg/mL.

// solved cases for solubility follow
Compound: O=C1N2Cc3c(OCCCS(=O)(=O)[O-])ccc(OCCCS(=O)(=O)[O-])c3CN3C(=O)N4CN5C(=O)N6CN7C(=O)N8CN9C(=O)N%10Cc%11c(OCCCS(=O)(=O)[O-])ccc(OCCCS(=O)(=O)[O-])c%11CN%11C(=O)N(CN%12C(=O)N(CN%13C(=O)N(CN1C41CCCCC231)[C@H]5[C@H]6%13)[C@H]7[C@H]8%12)C91CCCCC%10%111.[Na+].[Na+].[Na+].[Na+] (stereo partly drawn)
solubility (mg/mL): 520
--
Compound: CC[C@]12N3Cc4c(OCCCS(=O)(=O)[O-])ccc(OCCCS(=O)(=O)[O-])c4CN1C(=O)N1CN4C(=O)N5CN6C(=O)N7CN8C(=O)N9Cc%10c(OCCCS(=O)(=O)[O-])ccc(OCCCS(=O)(=O)[O-])c%10CN%10C(=O)N(CN%11C(=O)N(CN%12C(=O)N(CN(C3=O)[C@]12CC)[C@@H]4[C@H]%125)[C@@H]6[C@H]%117)[C@]8(CC)[C@@]9%10CC.[Na+].[Na+].[Na+].[Na+]
solubility (mg/mL): 750

Now, please, on to the next compound.
Challenge: What value of measured solubility is listed for CC[C@]12N3Cc4c(c(OCCCS(=O)(=O)[O-])c(C)c(C)c4OCCCS(=O)(=O)[O-])CN1C(=O)N1CN4C(=O)N5CN6C(=O)N7CN8C(=O)N9Cc%10c(c(OCCCS(=O)(=O)[O-])c(C)c(C)c%10OCCCS(=O)(=O)[O-])CN%10C(=O)N(CN%11C(=O)N(CN%12C(=O)N(CN(C3=O)[C@]12CC)[C@@H]4[C@H]%125)[C@@H]6[C@H]%117)[C@]8(CC)[C@@]9%10CC.[Na+].[Na+].[Na+].[Na+] ?
Response given: 940

---

Experiment description: Hemolytic activity in human erythrocytes assessed as hemolysis at 0.51 to 32.8 mg/ml
Type: toxicity, cell-based, Erythrocyte
Condition info: dose 0.51-32.8 mg/ml, read-out: Activity
Result type: hemolysis

Challenge: What value of measured hemolysis is listed for C[C@]12N3Cc4c(c(OCCCS(=O)(=O)[O-])c5c(c4OCCCS(=O)(=O)[O-])CCC5)CN1C(=O)N1CN4C(=O)N5CN6C(=O)N7CN8C(=O)N9Cc%10c(c(OCCCS(=O)(=O)[O-])c%11c(c%10OCCCS(=O)(=O)[O-])CCC%11)CN%10C(=O)N(CN%11C(=O)N(CN%12C(=O)N(CN(C3=O)[C@]12C)[C@@H]4[C@H]%125)[C@@H]6[C@H]%117)[C@]8(C)[C@@]9%10C.[Na+].[Na+].[Na+].[Na+] ?
Response given: < 5%

---

Tested on: Rattus norvegicus
Experiment description: Recovery of Roc-induced neuromuscular block in Sprague-Dawley rat assessed as […] ratio (TOFr) >= 90% by measuring recovery time at 25 mg/kg, iv (reference value: 597 seconds)
Format: functional
Result type: Time (s)
Give bare numbers, in s.

Challenge: What value of measured Time is listed for CN(C)C(=O)Oc1cccc([N+](C)(C)C)c1 [NEOSTIGMINE] ?
Response given: 409

---

Experiment description: Therapeutic index, ratio of toxicity in iv dosed Sprague-Dawley rat assessed as maximum tolerated dose to recovery of Roc/Vec/Panc-induced neuromuscular block in Sprague-Dawley rat assessed as […] ratio (TOFr) by measuring recovery time at 25 mg/kg, iv
Assay type: organism-based
Condition info: in vivo, read-out: TI
Result type: selectivity ratio
Answers are plain numbers.

Dear colleague, could you please provide selectivity ratio for the compounds listed below?
1. Cc1c(C)c(OCCCS(=O)(=O)[O-])c2c(c1OCCCS(=O)(=O)[O-])CN1C(=O)N3CN4C(=O)N5CN6C(=O)N7CN8C(=O)N9Cc%10c(c(OCCCS(=O)(=O)[O-])c(C)c(C)c%10OCCCS(=O)(=O)[O-])CN%10C(=O)N(CN%11C(=O)N(CN%12C(=O)N(CN%13C(=O)N(C2)[C@]1(C)[C@]%133C)[C@@H]4[C@@H]5%12)[C@@H]6[C@@H]7%11)[C@]8(C)[C@]%109C.[Na+].[Na+].[Na+].[Na+]
2. C[C@]12N3Cc4c(c(OCCCS(=O)(=O)[O-])c5c(c4OCCCS(=O)(=O)[O-])CCC5)CN1C(=O)N1CN4C(=O)N5CN6C(=O)N7CN8C(=O)N9Cc%10c(c(OCCCS(=O)(=O)[O-])c%11c(c%10OCCCS(=O)(=O)[O-])CCC%11)CN%10C(=O)N(CN%11C(=O)N(CN%12C(=O)N(CN(C3=O)[C@]12C)[C@@H]4[C@H]%125)[C@@H]6[C@H]%117)[C@]8(C)[C@@]9%10C.[Na+].[Na+].[Na+].[Na+]

Response given:
[60, 60]
